Tested on: TO-3-N3-2 (biotin conjugate)
Method notes: pull-down binding Z-score (relative to library population); higher = stronger binding
Measurement context: RNA library: Library-2
Outcome: true for pull-down binding Z-score of at least -0.1; false for anything lower.

{"Residue sequence": "CCUUCUGUAUACAUGUAUACAGGAGGAAGG [hsa-mir-4716]", "Group label": "true"}
{"Residue sequence": "UUUUCUUAAAUUGUAUAAAGAGAAAU [hsa-mir-944]", "Group label": "false"}
{"Residue sequence": "UGAUGGUGUUCCAUUUGUAGUUUCAACUGGAUACCACUUCA [DMSMaPseq_invitro_SARS-CoV-2_Motif_261]", "Group label": "false"}
{"Residue sequence": "AUUAUGAGGACUUUUAAAGUUUCCAUUUGGAAUCUUGAUUACAUCAUAAACCUCAUAAU", "Group label": "false"}
{"Residue sequence": "UGUAUGAAAAUGCCUUUUUACCUUUUGCUAUGGGUAUUAUUGCUAUGUCUGCUUUUGCAAUGAUGUUUGUCAAACAUAAGCAUGCA", "Group label": "true"}
{"Residue sequence": "UAGUACAACAGGAGUCACCUUUUGUUAUGAUGUCAGCACCACCUGCUCAGUAUGAACUUAAGCAUGGUACAUUUACUUGUGCUA", "Group label": "false"}
{"Residue sequence": "GUGUAGAGGCGGAGCACAG [hsa-mir-1471]", "Group label": "true"}
{"Residue sequence": "UUCAUGUUCACUGAAAGGUAGAUUUUAAAAACAUGAA [hsa-mir-4790]", "Group label": "true"}
{"Residue sequence": "GGCUGUAGUUGUGAUCAACUCCGCGAACCCAUGCUUCAGUCAGCUGAUGCACAAUCGUUUUUAAACGGGUUUGCGGUGUAAGUGCAGCC [DMSMaPseq_invitro_SARS-CoV-2_Motif_241]", "Group label": "true"}
{"Residue sequence": "UUCUUGUACGAGUCUGCGGCCAACCGAGAA [hsa-mir-219a-2]", "Group label": "false"}
{"Residue sequence": "AUGCACCCAUAUUUUAAUAUCAAACUAUGACAAAUU [hsa-mir-3974]", "Group label": "false"}
{"Residue sequence": "UAAUGGUUUAACUUCUAUUA [DMSMaPseq_invitro_SARS-CoV-2_Motif_100]", "Group label": "false"}
{"Residue sequence": "GAUUCGCUUUACUUAUGACGAAUC [hsa-mir-382]", "Group label": "false"}
{"Residue sequence": "AUUCUGGCUAGGUGAUCAUCAGAAU [hsa-mir-5583-1]", "Group label": "false"}
{"Residue sequence": "AAAGAGGUGUUUCUACUCCAU [hsa-mir-3690-1_3690-2]", "Group label": "true"}
{"Residue sequence": "CGAGUCUGAGCCUUUAAAAGCCACUCU [hsa-mir-1287]", "Group label": "true"}
{"Residue sequence": "AGAUAGUGAAGUAGAUUAGCAUCUACU [hsa-mir-18a]", "Group label": "true"}
{"Residue sequence": "GGGUGAUACACAAGCCUGACCCUCCC [hsa-mir-6793]", "Group label": "true"}
{"Residue sequence": "GGGAAGAACACC [IAV_invivo_M1_M2_7_Motif_3+IAV_invivo_M1_M2_7_Motif_3]", "Group label": "true"}
